- System tested: CYP3A4 (Homo sapiens)
- Sequence (P08684 whole entry): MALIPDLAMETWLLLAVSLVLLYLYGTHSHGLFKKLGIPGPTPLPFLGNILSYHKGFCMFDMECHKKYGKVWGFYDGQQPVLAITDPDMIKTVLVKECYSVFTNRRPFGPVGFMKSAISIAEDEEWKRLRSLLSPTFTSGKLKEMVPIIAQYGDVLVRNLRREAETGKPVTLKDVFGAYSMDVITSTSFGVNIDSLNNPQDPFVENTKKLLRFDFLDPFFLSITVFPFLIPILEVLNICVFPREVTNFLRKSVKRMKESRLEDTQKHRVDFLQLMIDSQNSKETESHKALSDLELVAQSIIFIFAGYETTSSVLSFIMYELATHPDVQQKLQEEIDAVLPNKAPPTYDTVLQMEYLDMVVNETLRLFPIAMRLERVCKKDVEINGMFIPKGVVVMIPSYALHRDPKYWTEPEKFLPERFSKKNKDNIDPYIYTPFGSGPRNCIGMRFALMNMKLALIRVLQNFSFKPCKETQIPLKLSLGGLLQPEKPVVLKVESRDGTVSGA
- Protocol: Inhibition of CYP3A4 at 3 uM
- Type: ADME
Measured property: inhibition at 3 µM (%)
# value in %; strip the unit string

The examples below pair each entry with its known result.
| Molecular string | Assay value |
| --- | --- |
| COc1ccc2c(c1)c(/C=C1\Oc3cc(O)cc(O)c3C1=O)cn2CCCN1CCOCC1 | 42 |
| COc1ccc2[nH]c(C)c(/C=C3\Oc4cc(O)cc(O)c4C3=O)c2c1 | 79 |
| COc1ccc2[nH]c(-c3ccccc3)c(/C=C3\Oc4cc(O)cc(O)c4C3=O)c2c1 | 77 |
| COc1ccc2c(c1)c(/C=C1\Oc3cc(O)cc(O)c3C1=O)c(C)n2CCN1CCOCC1 | 64 |
| COc1ccc2[nH]cc(/C=C3\Oc4cc(O)cc(O)c4C3=O)c2c1 | 58 |

Answer with the recorded inhibition at 3 µM of COc1ccc2c(c1)c(/C=C1\Oc3cc(O)cc(O)c3C1=O)c(C)n2CCCN1CCOCC1 only.
68

Answer with the recorded inhibition at 3 µM of COc1ccc2c(c1)c(/C=C1\Oc3cc(O)cc(O)c3C1=O)c(C)n2C only.
75

Answer with the recorded inhibition at 3 µM of COc1ccc2[nH]c(-c3cccnc3)c(/C=C3\Oc4cc(O)cc(O)c4C3=O)c2c1 only.
57

###

- Protocol: Aqueous solubility at pH 7.4
- Assay type: physicochemical
Measured property: solubility (µg/mL)
# value in µg/mL; strip the unit string

| Molecular string | solubility, µg/mL |
| --- | --- |
| Cc1[nH]c2ccc(Br)cc2c1/C=C1\Oc2cc(O)cc(O)c2C1=O | 1 |
| O=C1/C(=C/c2c(-c3ccc4ccccc4c3)[nH]c3ccccc23)Oc2cc(O)cc(O)c21 | 1 |
| O=C1/C(=C/c2c(-c3ccccc3)[nH]c3ccccc23)Oc2cc(O)cc(O)c21 | 1 |
| COc1ccc2[nH]c(C)c(/C=C3\Oc4cc(O)cc(O)c4C3=O)c2c1 | 1 |
| COc1ccc2c(c1)c(/C=C1\Oc3cc(O)cc(O)c3C1=O)c(C)n2CCCN1CCN(C)CC1 | 10 |

Answer with the recorded solubility of COc1ccc2c(c1)c(/C=C1\Oc3cc(O)cc(O)c3C1=O)c(C)n2CCN1CCN(C)CC1 only.
30

Answer with the recorded solubility of COc1ccc2[nH]cc(/C=C3\Oc4cc(O)cc(O)c4C3=O)c2c1 only.
12

Answer with the recorded solubility of O=C1/C(=C/c2c(-c3ccc(F)cc3)[nH]c3ccccc23)Oc2cc(O)cc(O)c21 only.
1

Answer with the recorded solubility of COc1ccc2c(c1)c(/C=C1\Oc3cc(O)cc(O)c3C1=O)cn2C only.
1

Answer with the recorded solubility of O=C1/C(=C/c2c(-c3ccc(Cl)cc3)[nH]c3ccccc23)Oc2cc(O)cc(O)c21 only.
1

###

- System tested: Phosphatidylinositol 4,5-bisphosphate 3-kinase catalytic subunit alpha isoform (Homo sapiens, UniProt P42336)
- Sequence (P42336 whole entry, canonical isoform): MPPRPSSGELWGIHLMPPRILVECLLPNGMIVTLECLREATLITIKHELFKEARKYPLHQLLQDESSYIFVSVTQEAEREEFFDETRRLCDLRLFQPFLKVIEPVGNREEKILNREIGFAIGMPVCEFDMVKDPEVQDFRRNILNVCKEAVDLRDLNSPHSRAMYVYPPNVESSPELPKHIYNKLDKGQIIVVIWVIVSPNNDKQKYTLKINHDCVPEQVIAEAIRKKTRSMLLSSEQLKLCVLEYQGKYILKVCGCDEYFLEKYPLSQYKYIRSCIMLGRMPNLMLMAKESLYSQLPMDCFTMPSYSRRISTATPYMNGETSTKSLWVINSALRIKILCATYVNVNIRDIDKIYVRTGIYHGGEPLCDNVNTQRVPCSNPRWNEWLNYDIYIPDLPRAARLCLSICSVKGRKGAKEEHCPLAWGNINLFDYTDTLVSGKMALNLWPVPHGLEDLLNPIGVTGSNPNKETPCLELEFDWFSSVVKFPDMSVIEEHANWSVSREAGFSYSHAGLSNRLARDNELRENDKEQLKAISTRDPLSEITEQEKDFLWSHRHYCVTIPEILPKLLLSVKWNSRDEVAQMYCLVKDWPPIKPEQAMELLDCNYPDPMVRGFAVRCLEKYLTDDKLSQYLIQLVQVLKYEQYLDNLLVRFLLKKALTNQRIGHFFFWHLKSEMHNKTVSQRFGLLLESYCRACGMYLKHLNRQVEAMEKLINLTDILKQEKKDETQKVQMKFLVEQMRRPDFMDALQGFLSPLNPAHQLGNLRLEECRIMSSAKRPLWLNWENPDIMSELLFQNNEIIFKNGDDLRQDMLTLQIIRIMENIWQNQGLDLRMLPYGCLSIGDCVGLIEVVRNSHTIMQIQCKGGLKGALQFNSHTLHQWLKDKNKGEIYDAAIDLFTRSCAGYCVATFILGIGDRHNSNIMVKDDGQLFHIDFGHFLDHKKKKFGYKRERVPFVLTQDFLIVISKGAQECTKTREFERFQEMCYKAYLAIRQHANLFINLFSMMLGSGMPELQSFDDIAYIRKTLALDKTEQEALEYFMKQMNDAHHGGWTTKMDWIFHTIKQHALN
- Protocol: Inhibition of PI3Kalpha
pIC50: −log10 of the molar value.
Class key for pIC50 values: low (below 7), middle (7 to below 8), high (8 or more)

A selection of reference data follows.
| Molecular string | Class label |
| --- | --- |
| O=C1/C(=C/c2c(-c3ccccc3)[nH]c3ccccc23)Oc2cc(O)cc(O)c21 | low |
| O=C1/C(=C/c2c(-c3ccccn3)[nH]c3ccccc23)Oc2cc(O)cc(O)c21 | low |

Band for COc1ccc2[nH]c(C)c(/C=C3\Oc4cc(O)cc(O)c4C3=O)c2c1 ?
high

Band for Cn1c(-c2ccccc2)c(/C=C2\Oc3cc(O)cc(O)c3C2=O)c2ccccc21 ?
low

Band for COc1ccc2c(c1)c(/C=C1\Oc3cc(O)cc(O)c3C1=O)cn2CCCN1CCN(CCO)CC1 ?
middle

Band for COc1ccc2c(c1)c(/C=C1\Oc3cc(O)cc(O)c3C1=O)cn2CCCN(C)C ?
middle

Band for O=C1/C(=C/c2c[nH]c3ccccc23)Oc2cc(O)cc(O)c21 ?
low

Band for COc1ccc2c(c1)c(/C=C1\Oc3cc(O)cc(O)c3C1=O)c(C)n2CCN1CCN(C)CC1 ?
high

Band for COc1ccc2[nH]c(-c3cccnc3)c(/C=C3\Oc4cc(O)cc(O)c4C3=O)c2c1 ?
high

Band for COc1ccc2c(c1)c(/C=C1\Oc3cc(O)cc(O)c3C1=O)cn2CCCN1CCOCC1 ?
middle

###

- Protocol: Aqueous solubility at pH 7.4
- Format: physicochemical
The label depends only on solubility: rule met if it is at least 2 µg/mL, rule not met if it is smaller.

| Molecular string | Class label |
| --- | --- |
| COc1ccc2c(c1)c(/C=C1\Oc3cc(O)cc(O)c3C1=O)c(C)n2CCN1CCOCC1 | rule met |

API: above_or_equal(metric=solubility, cutoff=2 µg/mL) for item O=C1/C(=C/c2c[nH]c3ccc(Cl)cc23)Oc2cc(O)cc(O)c21
rule not met

API: above_or_equal(metric=solubility, cutoff=2 µg/mL) for item COc1ccc2c(c1)c(/C=C1\Oc3cc(O)cc(O)c3C1=O)c(C)n2C
rule not met

API: above_or_equal(metric=solubility, cutoff=2 µg/mL) for item COc1ccc2c(c1)c(/C=C1\Oc3cc(O)cc(O)c3C1=O)c(C)n2CCCN1CCOCC1
rule not met

API: above_or_equal(metric=solubility, cutoff=2 µg/mL) for item COc1ccc2c(c1)c(/C=C1\Oc3cc(O)cc(O)c3C1=O)c(C)n2CCN(C)C
rule not met

API: above_or_equal(metric=solubility, cutoff=2 µg/mL) for item COc1ccc2c(c1)c(/C=C1\Oc3cc(O)cc(O)c3C1=O)cn2CCCN(C)C
rule met

###

- System tested: Phosphatidylinositol 4,5-bisphosphate 3-kinase catalytic subunit gamma isoform (Homo sapiens)
- Sequence (P48736 whole entry, canonical isoform): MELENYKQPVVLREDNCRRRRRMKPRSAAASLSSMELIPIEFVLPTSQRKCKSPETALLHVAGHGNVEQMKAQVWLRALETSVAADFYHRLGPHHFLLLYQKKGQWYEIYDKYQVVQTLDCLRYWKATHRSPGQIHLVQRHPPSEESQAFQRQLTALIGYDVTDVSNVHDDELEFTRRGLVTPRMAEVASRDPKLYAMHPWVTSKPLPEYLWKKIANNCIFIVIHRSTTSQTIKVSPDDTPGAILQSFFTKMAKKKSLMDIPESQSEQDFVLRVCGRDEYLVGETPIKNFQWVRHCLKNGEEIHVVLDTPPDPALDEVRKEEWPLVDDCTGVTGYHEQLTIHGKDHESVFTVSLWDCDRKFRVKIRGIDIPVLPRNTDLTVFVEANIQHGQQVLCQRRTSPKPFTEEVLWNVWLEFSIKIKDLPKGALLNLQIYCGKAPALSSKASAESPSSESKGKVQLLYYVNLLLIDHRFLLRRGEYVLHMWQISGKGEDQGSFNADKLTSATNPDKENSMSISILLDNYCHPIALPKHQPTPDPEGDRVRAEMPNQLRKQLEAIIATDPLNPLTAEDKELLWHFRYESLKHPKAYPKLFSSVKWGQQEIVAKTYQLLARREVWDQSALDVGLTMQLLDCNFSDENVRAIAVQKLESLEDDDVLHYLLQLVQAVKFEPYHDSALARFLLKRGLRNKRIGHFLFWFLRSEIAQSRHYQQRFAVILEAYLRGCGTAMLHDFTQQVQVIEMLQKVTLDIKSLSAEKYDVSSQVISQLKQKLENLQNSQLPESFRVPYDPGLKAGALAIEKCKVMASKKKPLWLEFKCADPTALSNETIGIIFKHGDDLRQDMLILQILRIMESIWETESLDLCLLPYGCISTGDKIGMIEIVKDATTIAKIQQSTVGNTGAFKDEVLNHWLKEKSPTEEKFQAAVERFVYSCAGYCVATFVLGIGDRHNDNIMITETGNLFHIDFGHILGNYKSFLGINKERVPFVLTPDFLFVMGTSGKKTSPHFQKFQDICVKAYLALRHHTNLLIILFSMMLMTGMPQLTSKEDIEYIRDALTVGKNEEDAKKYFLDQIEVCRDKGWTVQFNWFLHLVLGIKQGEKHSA
- Protocol: Inhibition of PI3Kgamma
Measured property: pIC50
For clarity, pIC50 is expressed as the negative log10 of concentration in mol/L.

| Molecular string | pIC50 |
| --- | --- |
| COc1ccc2c(c1)c(/C=C1\Oc3cc(O)cc(O)c3C1=O)c(C)n2CCCN(C)C | 6.39 |
| COc1ccc2c(c1)c(/C=C1\Oc3cc(O)cc(O)c3C1=O)c(C)n2CCCN1CCOCC1 | 7.12 |
| COc1ccc2c(c1)c(/C=C1\Oc3cc(O)cc(O)c3C1=O)cn2CCCN(C)C | 5.62 |
| COc1ccc2[nH]c(-c3ccccc3)c(/C=C3\Oc4cc(O)cc(O)c4C3=O)c2c1 | 7.96 |
| COc1ccc2c(c1)c(/C=C1\Oc3cc(O)cc(O)c3C1=O)c(C)n2CCN(C)C | 6.55 |
| COc1ccc2c(c1)c(/C=C1\Oc3cc(O)cc(O)c3C1=O)cn2CCCN1CCOCC1 | 6.19 |

Answer with the recorded pIC50 of COc1ccc2[nH]c(-c3cccnc3)c(/C=C3\Oc4cc(O)cc(O)c4C3=O)c2c1 only.
8.05

Answer with the recorded pIC50 of COc1ccc2c(c1)c(/C=C1\Oc3cc(O)cc(O)c3C1=O)c(C)n2C only.
7.27

###

- System tested: Serine/threonine-protein kinase mTOR (Homo sapiens, UniProt P42345)
compounds and their reported pIC50
For clarity, pIC50 is expressed as the negative log10 of concentration in mol/L.

The examples below pair each entry with its known result.
| Molecular string | pIC50 |
| --- | --- |
| Cn1cc(/C=C2\Oc3cc(O)cc(O)c3C2=O)c2ccccc21 | 6.10 |
| COc1ccc2c(c1)c(/C=C1\Oc3cc(O)cc(O)c3C1=O)c(C)n2CCCN(C)C | 6.93 |
| COc1ccc2c(c1)c(/C=C1\Oc3cc(O)cc(O)c3C1=O)c(C)n2C | 8.40 |
| COc1ccc2c(c1)c(/C=C1\Oc3cc(O)cc(O)c3C1=O)c(C)n2CCCN1CCN(CCO)CC1 | 6.97 |
| COc1ccc2c(c1)c(/C=C1\Oc3cc(O)cc(O)c3C1=O)c(C)n2CCCN1CCN(C)CC1 | 6.82 |
| COc1ccc2c(c1)c(/C=C1\Oc3cc(O)cc(O)c3C1=O)cn2CCCN1CCOCC1 | 6.37 |

State measured pIC50 of the compound COc1ccc2c(c1)c(/C=C1\Oc3cc(O)cc(O)c3C1=O)cn2CCCN(C)C with Serine/threonine-protein kinase mTOR (Homo sapiens, UniProt P42345).
5.67

State measured pIC50 of the compound COc1ccc2c(c1)c(/C=C1\Oc3cc(O)cc(O)c3C1=O)c(C)n2CCN1CCOCC1 with Serine/threonine-protein kinase mTOR (Homo sapiens, UniProt P42345).
8.05

State measured pIC50 of the compound COc1ccc2c(c1)c(/C=C1\Oc3cc(O)cc(O)c3C1=O)c(C)n2CCN1CCN(C)CC1 with Serine/threonine-protein kinase mTOR (Homo sapiens, UniProt P42345).
7.96

State measured pIC50 of the compound O=C1/C(=C/c2c[nH]c3ccccc23)Oc2cc(O)cc(O)c21 with Serine/threonine-protein kinase mTOR (Homo sapiens, UniProt P42345).
5.04
